# metabolised at 1 h annotations
assayExplanation: Percent conversion of compound in human lung S9 fraction after 60 min of administration
Type: ADME
conditionsUsed: read-out: Conversion
Entry rule: numbers only, all in %.

// worked examples, metabolised at 1 h included
chemicalStructure: CC(C)=CCOC(=O)c1sc(C(C)(C)c2c(Cl)cc(-n3ncc(=O)[nH]c3=O)cc2Cl)nc1-c1ccccc1
observedValue: 6
//
chemicalStructure: CC(C)(c1nc(-c2ccccc2)c(C(=O)OCC(F)(F)F)s1)c1c(Cl)cc(-n2ncc(=O)[nH]c2=O)cc1Cl
observedValue: 36
//
chemicalStructure: CC(C)(c1nc(-c2ccccc2)c(C(=O)OCCOc2ccccc2)s1)c1c(Cl)cc(-n2ncc(=O)[nH]c2=O)cc1Cl
observedValue: 21

Task: Specify measured metabolised at 1 h for CC(C)OC(=O)c1sc(C(C)(C)c2c(Cl)cc(-n3ncc(=O)[nH]c3=O)cc2Cl)nc1-c1ccccc1 .
Output: 1

Task: Specify measured metabolised at 1 h for CC(C)(c1nc(-c2ccccc2)c(C(=O)OCCc2ccccc2)s1)c1c(Cl)cc(-n2ncc(=O)[nH]c2=O)cc1Cl .
Output: 24

Task: Specify measured metabolised at 1 h for C#CCOC(=O)c1sc(C(C)(C)c2c(Cl)cc(-n3ncc(=O)[nH]c3=O)cc2Cl)nc1-c1ccccc1 .
Output: 20

Task: Specify measured metabolised at 1 h for COC(=O)c1sc(C(C)(C)c2c(Cl)cc(-n3ncc(=O)[nH]c3=O)cc2Cl)nc1-c1ccccc1 .
Output: 47

Task: Specify measured metabolised at 1 h for CC(=O)COC(=O)c1sc(C(C)(C)c2c(Cl)cc(-n3ncc(=O)[nH]c3=O)cc2Cl)nc1-c1ccccc1 .
Output: 19

Task: Specify measured metabolised at 1 h for C=CCOC(=O)c1sc(C(C)(C)c2c(Cl)cc(-n3ncc(=O)[nH]c3=O)cc2Cl)nc1-c1ccccc1 .
Output: 23

Task: Specify measured metabolised at 1 h for CCCCCOC(=O)c1sc(C(C)(C)c2c(Cl)cc(-n3ncc(=O)[nH]c3=O)cc2Cl)nc1-c1ccccc1 .
Output: 32

====

System: PBL
assayExplanation: Percent inhibition of interleukin-5 production in human whole blood assay after 10e-6 M treatment
Type: functional
recordedMetric: Inhibition (%)
Entry rule: numbers only, all in %.

Task: Specify measured Inhibition for CC(C)(c1nc(-c2ccccc2)c(C(=O)OCCCO)s1)c1c(Cl)cc(-n2ncc(=O)[nH]c2=O)cc1Cl .
Output: 83

Task: Specify measured Inhibition for CCCCOC(=O)c1sc(C(C)(C)c2c(Cl)cc(-n3ncc(=O)[nH]c3=O)cc2Cl)nc1-c1ccccc1 .
Output: 88

Task: Specify measured Inhibition for CC(C)(c1nc(-c2ccccc2)c(C(=O)OCCOc2ccccc2)s1)c1c(Cl)cc(-n2ncc(=O)[nH]c2=O)cc1Cl .
Output: 83

Task: Specify measured Inhibition for CCOC(=O)c1sc(C(C)(C)c2c(Cl)cc(-n3ncc(=O)[nH]c3=O)cc2Cl)nc1-c1ccccc1 .
Output: 94

Task: Specify measured Inhibition for CC#CCOC(=O)c1sc(C(C)(C)c2c(Cl)cc(-n3ncc(=O)[nH]c3=O)cc2Cl)nc1-c1ccccc1 .
Output: 100

Task: Specify measured Inhibition for CC(C)(C)OC(=O)c1sc(C(C)(C)c2c(Cl)cc(-n3ncc(=O)[nH]c3=O)cc2Cl)nc1-c1ccccc1 .
Output: 89

====

assayExplanation: Percent conversion of compound in human liver fraction after 60 min of administration
Assay type: ADME, tissue-based
conditionsUsed: read-out: Conversion
Give TRUE when the value for metabolised at 1 h is at least 70%. Give FALSE when it is less.

chemicalStructure: CC#CCOC(=O)c1sc(C(C)(C)c2c(Cl)cc(-n3ncc(=O)[nH]c3=O)cc2Cl)nc1-c1ccccc1
classAssignment: FALSE

chemicalStructure: CC(C)(c1nc(-c2ccccc2)c(C(=O)OCCCO)s1)c1c(Cl)cc(-n2ncc(=O)[nH]c2=O)cc1Cl
classAssignment: TRUE

Task: Determine whether this compound has metabolised at 1 h no lower than 70%: CC(C)(c1nc(-c2ccccc2)c(C(=O)OCC#N)s1)c1c(Cl)cc(-n2ncc(=O)[nH]c2=O)cc1Cl
Output: FALSE

====

# metabolised at 1 h annotations
assayExplanation: Percent conversion of compound in human lung S9 fraction after 60 min of administration
Assay type: ADME
conditionsUsed: read-out: Conversion
Entry rule: numbers only, all in %.

chemicalStructure: CC(C)(C)OC(=O)c1sc(C(C)(C)c2c(Cl)cc(-n3ncc(=O)[nH]c3=O)cc2Cl)nc1-c1ccccc1
observedValue: 0

chemicalStructure: CC#CCOC(=O)c1sc(C(C)(C)c2c(Cl)cc(-n3ncc(=O)[nH]c3=O)cc2Cl)nc1-c1ccccc1
observedValue: 3

chemicalStructure: CCCCOC(=O)c1sc(C(C)(C)c2c(Cl)cc(-n3ncc(=O)[nH]c3=O)cc2Cl)nc1-c1ccccc1
observedValue: 18

chemicalStructure: CC(C)(c1nc(-c2ccccc2)c(C(=O)OCC#N)s1)c1c(Cl)cc(-n2ncc(=O)[nH]c2=O)cc1Cl
observedValue: 34

chemicalStructure: CCCOC(=O)c1sc(C(C)(C)c2c(Cl)cc(-n3ncc(=O)[nH]c3=O)cc2Cl)nc1-c1ccccc1
observedValue: 23

Task: Specify measured metabolised at 1 h for CC(C)COC(=O)c1sc(C(C)(C)c2c(Cl)cc(-n3ncc(=O)[nH]c3=O)cc2Cl)nc1-c1ccccc1 .
Output: 27

Task: Specify measured metabolised at 1 h for CCOC(=O)c1sc(C(C)(C)c2c(Cl)cc(-n3ncc(=O)[nH]c3=O)cc2Cl)nc1-c1ccccc1 .
Output: 17
